Source: patent US20240002497A1

- target_under_test: T1, huNav1.7α + β1-β2-β3 (human, UniProt Q15858 1-1988; A5A6L6 19-218; O60939 30-215; Q2KI11 23-215)
- T1 construct: also called huNav1.7-beta1-beta2-beta3; huNav1.7-β1-β2-β3
- assay_remarks: binding FACS, CHO FlpIn
property_measured: Bmax (%)

binder="F010302345 (VHH) VHH: EVQLVESGGGVVQPGGSLRLSCAASHRQFIRDVFTGWYRQAPGKQRELVARIYEGGNTQYADSAKGRFTISRDNAKKTVYLQMNSLRPEDTALYYCLFSGTISTGREYRSGDYWGQGTLVTVSS" property_measured=Bmax observed_value=100
binder="F010302351 (VHH) VHH: EVQLVESGGGVVQPGGSLRLSCAASSRQFIRDVFTGWYRRAPGKQRELVARIYESGNTQYADSVKGRFTISRDNAKKTVYLQMNSLRPEDTALYYCLFSGTISTGREYRSGDYWGQGTLVTVSS" property_measured=Bmax observed_value=100
binder="F010301932 (VHH, also called F0103464B09(L11V, K83R, V89L)) VHH: EVQLVESGGGVVQPGGSLRLSCATTSRAFIRDVFTGWYRRVPGKERELVARIYNGGNTNYADFAKGRFSISRDNAKKMVTLRMSNLRPEDTGLYYCLFSGTINTGREYRSGDYWGQGTLVTVSS" property_measured=Bmax observed_value=94
binder="F010301937 (VHH, also called F0103464B09(L11V, S82aN, K83R, V89L)) VHH: EVQLVESGGGVVQPGGSLRLSCATTSRAFIRDVFTGWYRRVPGKERELVARIYNGGNTNYADFAKGRFSISRDNAKKMVTLRMNNLRPEDTGLYYCLFSGTINTGREYRSGDYWGQGTLVTVSS" property_measured=Bmax observed_value=95
